# Tested on: MMA primary hepatocytes
# RUN DESCRIPTION: HemoShear Technology, MMA primary hepatocytes (Examples 10, 11)
# Assay type: cell-based, human
# COND: Homo sapiens, Hepatocyte; MMA pHeps; HemoShear; read-out: CoASH EC50
PROPERTY LABEL: pEC50
In plain terms, pEC50 is the concentration in mol/L turned into minus its base-10 logarithm.

pEC50 lookup needed for CCC(C)(C)C(=O)O [Compound 5, 2,2-dimethybutanoic acid] , thanks.
4.85

* * *

# System: MMA primary hepatocytes
# RUN DESCRIPTION: HemoShear Technology, MMA primary hepatocytes (Examples 10, 11)
# Assay type: cell-based, human
# COND: Homo sapiens, Hepatocyte; MMA pHeps; HemoShear; average ± SD; read-out: 12C-Methylmalonyl-CoA (M-CoA) EC50
PROPERTY LABEL: pEC50
Give only the number. pEC50 is defined as minus log10 of concentration in molar units.

Look up pEC50 for this compound: CCC(C)(C)C(=O)O [Compound 5, 2,2-dimethybutanoic acid]
5.70

* * *

# RUN DESCRIPTION: clinical
# Set-up: species or system human
# COND: human, in vivo, 40 mg/kg
PROPERTY LABEL: AUC

# query: AUC of entry CCC(C)(C)C(=O)O [Compound 5, 2,2-dimethybutanoic acid]
2620 µg·h/mL

* * *

# System: PA primary hepatocytes
# RUN DESCRIPTION: Static cell culture, low/high propiogenic media, PA primary hepatocytes
# Type: cell-based, human
# COND: Homo sapiens, Hepatocyte, PA pHeps; low propiogenic; static culture; read-out: CoASH EC50
PROPERTY LABEL: pEC50
Recall that pEC50 is obtained by taking minus log10 of the concentration measured in molar.

Reported pEC50 for CCC(C)(C)C(=O)O [Compound 5, 2,2-dimethybutanoic acid] : what is it?
6.05

* * *

# Tested on: PA primary hepatocytes
# RUN DESCRIPTION: HemoShear Technology, PA primary hepatocytes (Examples 10, 11)
# Type: cell-based, human
# COND: Homo sapiens, Hepatocyte; PA pHeps; HemoShear; average ± SD; read-out: 12C-Propionyl-Carnitine (C3) EC50
PROPERTY LABEL: EC50
// unit must come after the numeric part

For the compound shown here, CCC(C)(C)C(=O)O , give the reported EC50.
2.6 µM

* * *

# Tested on: primary hepatocytes of propionic acidemia patients
# RUN DESCRIPTION: Propionyl-CoA from various sources in PA primary hepatocytes (Examples 2, 3)
# Type: cell-based, human
# COND: Homo sapiens, Hepatocyte, 5 mM 13C-MET, read-out: concentration of propionyl-CoA EC50
PROPERTY LABEL: EC50 (µM)
Reply with just the number (in µM).

I'd like to know its EC50. The compound in question is CCCC(CCC)C(=O)O
7.14

* * *

# RUN DESCRIPTION: clinical
# Parameters: species or system human
# COND: human, in vivo, 30 mg/kg
PROPERTY LABEL: AUC

Any idea what its AUC is? The compound is CCC(C)(C)C(=O)O
2180 µg·h/mL

* * *

# Tested on: PA primary hepatocytes
# RUN DESCRIPTION: HemoShear Technology, PA primary hepatocytes (Examples 10, 11)
# Format: cell-based, human
# COND: Homo sapiens, Hepatocyte; PA pHeps; HemoShear; read-out: Compound 5-CoA (formation) EC50
# Source text: […]
PROPERTY LABEL: pEC50
API: returns pEC50 as number; meaning -log10 of concentration in mol/L.

Could you share which pEC50 value was measured for CCC(C)(C)C(=O)O [Compound 5, 2,2-dimethybutanoic acid] ?
5.52

* * *

# Tested on: primary hepatocytes of methylmalonic acidemia patients
# RUN DESCRIPTION: Propionyl-CoA and methylmalonyl-CoA from various sources in MMA primary hepatocytes (Examples 4, 5)
# Assay type: cell-based, human
# COND: Homo sapiens, Hepatocyte, 5 mM 13C-MET, read-out: concentration of propionyl-CoA EC50
PROPERTY LABEL: pEC50
Schema: pEC50 number; meaning minus log10 of the concentration expressed in molar units.

Item CCCC(CCC)C(=O)O has what recorded pEC50?
4.29

* * *

Listed here are compounds together with their documented EC50.
# Tested on: primary hepatocytes of methylmalonic acidemia patients
# RUN DESCRIPTION: Propionyl-CoA and methylmalonyl-CoA from various sources in MMA primary hepatocytes (Examples 4, 5)
# Assay type: cell-based, human
# COND: Homo sapiens, Hepatocyte, 1 mM 13C-KIVA, read-out: concentration of propionyl-CoA EC50
# Procedure: Primary hepatocytes isolated from livers of methylmalonic acidemia patients are treated with increasing doses of compound 1 (0, 1, 3, 10, 30, 100, 300, 1000 μM) for 30 minutes. […] At the end of the challenge period, media is removed and the cells are lysed with 70% MCCN and 0.1% TFA containing 100 μM of ethymalonyl-CoA as an internal standard and harvested. Cell lysates are processed for HTMS/MS analysis. […]
Note: unit µM is implicit; provide only the numeric part.

- SMILES ENTRY: "CCC(C)(C)C(=O)O"
  ASSAY SYSTEM: "primary hepatocytes of methylmalonic acidemia patients"
  REPORTED MEASUREMENT: 0.93

Here is another compound to look at.
Which EC50 value belongs to CCCC(CCC)C(=O)O ?
30.9

* * *

# Tested on: normal primary hepatocytes
# RUN DESCRIPTION: HemoShear Technology, normal primary hepatocytes (Example 11)
# Format: cell-based, human
# COND: Homo sapiens, Hepatocyte, Normal pHeps, read-out: Compound 5-CoA (formation) EC50
PROPERTY LABEL: EC50 (µM)
# number only, unit µM dropped from output

I am curious: what EC50 value has been reported for CCC(C)(C)C(=O)O ?
8.3

* * *

# Test system: MMA primary hepatocytes
# RUN DESCRIPTION: HemoShear Technology, MMA primary hepatocytes (Examples 10, 11)
# Format: cell-based, human
# COND: Homo sapiens, Hepatocyte; MMA pHeps; HemoShear; average ± SD; read-out: 12C-Acetyl-Camitine (C2) EC50
PROPERTY LABEL: EC50 (µM)
A number alone suffices; assume µM.

Could you tell me which EC50 is on file for CCC(C)(C)C(=O)O ?
4.3

* * *

Here the recorded pEC50 is given for each entry.
# System: primary hepatocytes of propionic acidemia patients
# RUN DESCRIPTION: Reduction of 13C-propionyl-CoA and accumulation of compound-CoA ester after 13C-isoleucine challenge (Example 1)
# Type: cell-based
# COND: Homo sapiens, Hepatocyte; 13C-labeled isoleucine; compound 0 μM to 1,000 μM; read-out: concentration of 13C-propionyl-CoA EC50
When answering, recall that pEC50 equals minus log10 of the concentration in mol/L, and write that number alone.

Answered examples (3):
- MOLECULE: "CCC(CC)C(=O)O"
  REPORTED MEASUREMENT: 4.49
- MOLECULE: "CCCC(CC)C(=O)O (stereo not shown)"
  REPORTED MEASUREMENT: 5.91
- MOLECULE: "CC1(CC(=O)O)CC1"
  REPORTED MEASUREMENT: 4.54

Consider the molecule CCCC(C)C(=O)O (stereo not shown) and give its measured pEC50.
4.88

Consider next the molecule CCC(C)(C)C(=O)O in the same way.
6.37

Same for CCCC(CCC)C(=O)O
4.91

// query: CC(C)(C)CC(=O)O
6.04

* * *

# Tested on: PA primary hepatocytes
# RUN DESCRIPTION: HemoShear Technology, PA primary hepatocytes (Examples 10, 11)
# Type: cell-based, human
# COND: Homo sapiens, Hepatocyte; PA donor 1, representative data (FIG. 7E); read-out: MCA reduction EC50
PROPERTY LABEL: EC50 (µM)
Lab book: enter the figure in µM, no units written.

Any idea what EC50 was measured for CCC(C)(C)C(=O)O [Compound 5, 2,2-dimethybutanoic acid] ?
1.96
